experimental.target: ALXR (Homo sapiens, UniProt P25090)
Construct: expressed in transfected cells; host or cells: CHO-K1
Sequence (P25090 whole entry): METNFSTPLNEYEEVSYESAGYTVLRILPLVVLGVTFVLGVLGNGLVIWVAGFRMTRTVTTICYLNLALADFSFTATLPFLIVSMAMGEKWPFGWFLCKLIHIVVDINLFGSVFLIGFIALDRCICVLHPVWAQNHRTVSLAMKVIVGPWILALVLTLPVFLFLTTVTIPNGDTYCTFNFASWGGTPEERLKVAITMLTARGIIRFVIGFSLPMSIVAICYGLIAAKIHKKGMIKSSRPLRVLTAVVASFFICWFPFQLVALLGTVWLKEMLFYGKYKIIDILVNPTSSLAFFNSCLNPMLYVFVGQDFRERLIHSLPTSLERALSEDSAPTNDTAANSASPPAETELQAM
measurement.protocol: IP1 (Inositol Monophosphate) Assay
Format: cell-based
measurement.parameters: compound at 3 μM; ALXR/Gα16 expression CHO-K1 cell strain; 30 minutes; medium group 293.6
value.kind: IP1 Concentration

Prompt line: For ALXR (Homo sapiens, UniProt P25090), give IP1 Concentration of the listed compound: Cc1sc(C2(NS(C)(=O)=O)CCN(C(=O)Nc3ccc(C(F)(F)F)cc3)CC2)nc1-c1ccccc1
Response line: 592.1 nmol/L

Prompt line: System ALXR (Homo sapiens, UniProt P25090). Read-out IP1 Concentration. Item Cc1sc(C2CCN(C(=O)Nc3ccc(C(F)(F)F)cc3)CC2)nc1-c1cccc(F)c1 . Report value.
Response line: 853.7 nmol/L

Prompt line: Using ALXR (Homo sapiens, UniProt P25090) as the test system, report measured IP1 Concentration of O=C(Nc1cccnc1)N1CCC(c2nc(-c3ccccc3)cs2)CC1 [Reference Example Compound, reference compound] .
Response line: 282.5 nmol/L

Prompt line: Consider the compound O=C(Nc1ccc(C(F)(F)F)cc1)N1CCC(c2nc(-c3cccnc3)cs2)CC1 tested on ALXR (Homo sapiens, UniProt P25090); state its IP1 Concentration.
Response line: 789.9 nmol/L

Prompt line: State IP1 Concentration on ALXR (Homo sapiens, UniProt P25090). Entry: Cc1sc(C2(O)CCN(C(=O)Nc3ccc(C(F)(F)F)cc3)CC2)nc1-c1cccc(F)c1
Response line: 539.3 nmol/L

Prompt line: Answer briefly: IP1 Concentration recorded on ALXR (Homo sapiens, UniProt P25090) for N#Cc1sc(C2CCN(C(=O)Nc3ccc(C(F)(F)F)cc3)CC2)nc1-c1ccccc1
Response line: 1020.9 nmol/L
